Data origin: paper PMC6777825

assay target: T1r2a/T1r3 full-length receptor (Oryzias latipes, UniProt A0A173M094+A0A173M0G2)
Sequence (A0A173M0G2 entry or part of it): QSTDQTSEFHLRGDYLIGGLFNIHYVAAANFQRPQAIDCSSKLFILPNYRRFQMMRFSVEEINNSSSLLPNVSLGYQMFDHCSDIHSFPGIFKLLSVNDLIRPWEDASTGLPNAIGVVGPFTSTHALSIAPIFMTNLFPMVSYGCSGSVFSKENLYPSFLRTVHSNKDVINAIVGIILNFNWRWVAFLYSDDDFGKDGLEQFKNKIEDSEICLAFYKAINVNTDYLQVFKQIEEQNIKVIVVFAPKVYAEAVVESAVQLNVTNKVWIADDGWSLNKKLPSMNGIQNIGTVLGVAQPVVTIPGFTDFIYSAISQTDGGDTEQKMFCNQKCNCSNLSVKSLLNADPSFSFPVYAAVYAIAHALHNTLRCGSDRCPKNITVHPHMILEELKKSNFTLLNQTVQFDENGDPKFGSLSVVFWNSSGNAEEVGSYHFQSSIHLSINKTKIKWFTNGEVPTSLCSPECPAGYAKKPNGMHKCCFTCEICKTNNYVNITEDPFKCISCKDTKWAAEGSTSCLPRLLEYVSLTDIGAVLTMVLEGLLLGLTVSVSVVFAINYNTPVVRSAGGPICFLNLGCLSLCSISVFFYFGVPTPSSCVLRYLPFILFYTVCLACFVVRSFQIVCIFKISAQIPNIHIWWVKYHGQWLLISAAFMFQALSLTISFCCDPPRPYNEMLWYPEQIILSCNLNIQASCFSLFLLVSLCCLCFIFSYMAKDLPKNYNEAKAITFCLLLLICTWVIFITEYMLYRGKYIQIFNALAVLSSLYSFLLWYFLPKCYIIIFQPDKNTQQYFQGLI
Sequence (A0A173M094 entry or part of it): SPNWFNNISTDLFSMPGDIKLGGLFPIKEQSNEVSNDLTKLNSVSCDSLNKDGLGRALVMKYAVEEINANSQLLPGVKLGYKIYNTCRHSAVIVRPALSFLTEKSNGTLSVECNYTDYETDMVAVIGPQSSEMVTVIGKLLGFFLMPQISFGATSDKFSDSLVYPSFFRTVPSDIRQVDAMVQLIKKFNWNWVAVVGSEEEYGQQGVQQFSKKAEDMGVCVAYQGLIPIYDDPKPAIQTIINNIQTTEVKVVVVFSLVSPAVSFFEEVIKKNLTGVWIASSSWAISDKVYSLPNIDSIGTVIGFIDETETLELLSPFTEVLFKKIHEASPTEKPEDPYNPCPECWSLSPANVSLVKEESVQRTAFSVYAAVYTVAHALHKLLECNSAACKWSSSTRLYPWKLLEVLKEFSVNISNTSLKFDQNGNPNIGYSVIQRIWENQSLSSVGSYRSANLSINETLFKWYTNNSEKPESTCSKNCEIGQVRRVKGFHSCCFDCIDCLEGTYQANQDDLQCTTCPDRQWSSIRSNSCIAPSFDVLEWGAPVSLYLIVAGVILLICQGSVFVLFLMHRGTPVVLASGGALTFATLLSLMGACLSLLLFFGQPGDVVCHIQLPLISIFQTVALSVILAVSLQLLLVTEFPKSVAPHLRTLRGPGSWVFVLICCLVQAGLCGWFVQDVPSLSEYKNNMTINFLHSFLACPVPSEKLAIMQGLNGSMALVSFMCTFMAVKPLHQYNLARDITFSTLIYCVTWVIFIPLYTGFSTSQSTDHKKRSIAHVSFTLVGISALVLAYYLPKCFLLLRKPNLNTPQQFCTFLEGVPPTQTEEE
method summary: Ca2+-flux receptor response assay in Flip-In 293 cells stably expressing full-length T1r2a, T1r3 and Gα16-gust44
Format: cell-based, O. latipes
settings: EC50-est, estimated from ΔRFU at 10 mM by Hill equation, ΔRFUmax 104.3
observed property: pEC50
Note: pEC50 values are expressed as the negative base-10 logarithm of concentration in M.

[
  {
    "molecule": "NCCCC[C@H](N)C(=O)O [L-Lys, L-lysine]",
    "assay target": "T1r2a/T1r3 full-length receptor (Oryzias latipes, UniProt A0A173M094+A0A173M0G2)",
    "pEC50": 1.33
  }
]

Specify pEC50 for N=C(N)NCCC[C@H](N)C(=O)O [L-Arg, arginine] and stop.
2.19

* * *

assay target: T1r2a/T1r3 full-length receptor (Oryzias latipes, UniProt A0A173M094+A0A173M0G2)
method summary: Ca2+-flux receptor response assay in Flip-In 293 cells stably expressing full-length T1r2a, T1r3 and Gα16-gust44
Assay type: cell-based, O. latipes
settings: estimated from ΔRFU at 10 mM by Hill equation, ΔRFUmax 104.3; read-out: EC50-est
observed property: EC50 (mM)
Express the result in mM but write the number alone.

[
  {
    "compound": "N[C@@H](Cc1c[nH]cn1)C(=O)O",
    "data value": 62.4
  }
]

Specify EC50 for `NC(=O)C[C@H](N)C(=O)O` and stop.
56.3

Specify EC50 for `O=C(O)[C@@H]1CCCN1` and stop.
13.2

Specify EC50 for `C[C@H](N)C(=O)O` and stop.
1.49

Specify EC50 for `C[C@@H](O)[C@H](N)C(=O)O` and stop.
47.4

Specify EC50 for `NC(=O)CC[C@H](N)C(=O)O` and stop.
2.88

Specify EC50 for `CSCC[C@H](N)C(=O)O` and stop.
37.9

Specify EC50 for `N[C@@H](Cc1ccccc1)C(=O)O` and stop.
36.5

Specify EC50 for `C[C@@H](N)C(=O)O` and stop.
34.2

* * *

Reported values of ΔTm for individual entries
assay target: medaka T1r2a/T1r3LBD (Oryzias latipes, UniProt A0A173M094+A0A173M0G2)
Sequence (A0A173M094 entry or part of it): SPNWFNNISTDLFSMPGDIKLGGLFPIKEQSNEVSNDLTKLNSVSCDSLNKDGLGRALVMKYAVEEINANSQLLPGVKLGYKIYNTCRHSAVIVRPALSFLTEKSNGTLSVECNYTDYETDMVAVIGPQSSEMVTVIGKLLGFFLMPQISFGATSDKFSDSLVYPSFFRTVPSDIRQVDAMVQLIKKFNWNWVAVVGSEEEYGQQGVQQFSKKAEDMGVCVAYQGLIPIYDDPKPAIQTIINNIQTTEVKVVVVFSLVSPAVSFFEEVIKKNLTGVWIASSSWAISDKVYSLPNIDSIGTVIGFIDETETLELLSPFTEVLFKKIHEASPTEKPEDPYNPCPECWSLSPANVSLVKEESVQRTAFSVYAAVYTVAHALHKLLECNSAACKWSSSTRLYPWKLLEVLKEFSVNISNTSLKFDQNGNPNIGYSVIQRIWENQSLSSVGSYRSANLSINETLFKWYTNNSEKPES
Sequence (A0A173M0G2 entry or part of it): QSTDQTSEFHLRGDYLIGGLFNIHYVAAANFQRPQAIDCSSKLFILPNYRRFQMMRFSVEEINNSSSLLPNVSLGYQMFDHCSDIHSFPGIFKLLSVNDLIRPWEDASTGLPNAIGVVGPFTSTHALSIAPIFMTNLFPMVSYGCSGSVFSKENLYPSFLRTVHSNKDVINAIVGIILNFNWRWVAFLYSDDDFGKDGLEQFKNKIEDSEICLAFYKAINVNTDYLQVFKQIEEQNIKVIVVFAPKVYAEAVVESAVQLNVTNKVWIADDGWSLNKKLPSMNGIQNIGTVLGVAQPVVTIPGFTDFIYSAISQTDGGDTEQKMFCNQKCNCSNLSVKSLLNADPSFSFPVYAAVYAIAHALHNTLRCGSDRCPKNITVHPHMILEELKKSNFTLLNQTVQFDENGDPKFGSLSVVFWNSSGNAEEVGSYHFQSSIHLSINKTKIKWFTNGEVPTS
method summary: Differential scanning fluorimetry (DSF) thermal shift ligand-binding assay
Parameters: species or system O. latipes
settings: 0.1 mM amino acid; average ± s.e.m., n = 4
Experimental: The protein sample was prepared as described previously. Briefly, Drosophila S2 cells (Invitrogen) stably expressing C-terminal FLAG-tagged T1r2aLBD and T1r3LBD [11, 21] were cultured in ExpressFiveSFM (LifeTechnologies) for five days at 27 °C. The T1r2a/T1r3-LBD protein was purified from the culture medium by the use of ANTI-FLAG M2 Affinity Gel (SIGMA). […] Fluorescent intensity was measured by the StepOne Real-Time PCR System (Applied Biosystems). […]
Express the result in K but write the number alone.

[
  {
    "molecule": "N=C(N)NCCC[C@H](N)C(=O)O [L-Arg, arginine]",
    "data value": 0.45
  },
  {
    "molecule": "CC(C)C[C@H](N)C(=O)O [L-Leu]",
    "data value": 0.08
  },
  {
    "molecule": "CC[C@H](C)[C@H](N)C(=O)O [L-Ile]",
    "data value": -0.50
  }
]

Provide ΔTm, recorded with medaka T1r2a/T1r3LBD (Oryzias latipes, UniProt A0A173M094+A0A173M0G2), of C[C@@H](O)[C@H](N)C(=O)O [L-Thr]
-0.06

* * *

Reported values of pEC50-est for individual entries
assay target: T1r2a/T1r3 full-length receptor (Oryzias latipes, UniProt A0A173M094+A0A173M0G2)
method summary: Ca2+-flux receptor response assay in Flip-In 293 cells stably expressing full-length T1r2a, T1r3 and Gα16-gust44
Format: cell-based, O. latipes
settings: from response at 10 mM; log 1/EC50-est
# print the numeric value only

[
  {
    "compound": "N[C@@H](Cc1ccccc1)C(=O)O [L-Phe]",
    "data value": 1.44
  },
  {
    "compound": "CSCC[C@H](N)C(=O)O [L-Met]",
    "data value": 1.42
  },
  {
    "compound": "NC(=O)C[C@H](N)C(=O)O [L-Asn]",
    "data value": 1.25
  }
]

Specify pEC50-est for CC(C)[C@H](N)C(=O)O [L-Val] and stop.
1.65

Specify pEC50-est for CC(C)C[C@H](N)C(=O)O [L-Leu] and stop.
1.56

Specify pEC50-est for N[C@@H](CO)C(=O)O [L-Ser] and stop.
1.67

Specify pEC50-est for C[C@@H](O)[C@H](N)C(=O)O [L-Thr] and stop.
1.32

Specify pEC50-est for NCC(=O)O [Gly, glycine] and stop.
1.90

* * *

assay target: medaka T1r2a/T1r3LBD (Oryzias latipes, UniProt A0A173M094+A0A173M0G2)
method summary: Differential scanning fluorimetry (DSF) thermal shift ligand-binding assay
Design: species or system O. latipes
settings: from ΔTm at 1 mM via Eq 1, T0 326.1 K, ΔH0 72.1 kcal mol-1; read-out: Kd-app estimated at a single ligand concentration
Reported values of potency estimated from few doses for individual entries
Write the quantity with the unit trailing the number.

[
  {
    "compound": "CSCC[C@H](N)C(=O)O [L-Met]",
    "assay target": "medaka T1r2a/T1r3LBD (Oryzias latipes, UniProt A0A173M094+A0A173M0G2)",
    "potency estimated from few doses": "146 µM"
  }
]

Specify potency estimated from few doses for N[C@@H](Cc1ccccc1)C(=O)O [L-Phe] and stop.
2370 µM

Specify potency estimated from few doses for N[C@@H](Cc1c[nH]cn1)C(=O)O [L-His] and stop.
1960 µM

Specify potency estimated from few doses for NC(=O)CC[C@H](N)C(=O)O [L-Gln, L-glutamine] and stop.
29.2 µM

Specify potency estimated from few doses for NC(=O)C[C@H](N)C(=O)O [L-Asn] and stop.
7330 µM

Specify potency estimated from few doses for N[C@@H](CCC(=O)O)C(=O)O [L-Glu, glutamate] and stop.
5700 µM

* * *

assay target: medaka T1r2a/T1r3LBD (Oryzias latipes, UniProt A0A173M094+A0A173M0G2)
method summary: Differential scanning fluorimetry (DSF) thermal shift ligand-binding assay
Parameters: species or system O. latipes
settings: from ΔTm at 10 mM via Eq 1, T0 326.1 K, ΔH0 72.1 kcal mol-1; read-out: Kd-app estimated at a single ligand concentration
Binary call on potency estimated from few doses: Condition met from 2000 µM upward, Condition not met beneath that.

Some solved entries appear below for comparison.
[
  {
    "entry smiles": "NCC(=O)O",
    "class name": "Condition met"
  },
  {
    "entry smiles": "N[C@@H](Cc1c[nH]cn1)C(=O)O",
    "class name": "Condition not met"
  },
  {
    "entry smiles": "C[C@@H](O)[C@H](N)C(=O)O",
    "class name": "Condition not met"
  },
  {
    "entry smiles": "CC(C)[C@H](N)C(=O)O",
    "class name": "Condition not met"
  },
  {
    "entry smiles": "CC(C)C[C@H](N)C(=O)O",
    "class name": "Condition not met"
  }
]

Hello, I need to know if `CC[C@H](C)[C@H](N)C(=O)O` has measured potency estimated from few doses not below 2000 µM. Thanks!
Condition met

* * *

assay target: medaka T1r2a/T1r3LBD (Oryzias latipes, UniProt A0A173M094+A0A173M0G2)
method summary: Differential scanning fluorimetry (DSF) thermal shift ligand-binding assay
Set-up: species or system O. latipes
settings: 10 mM amino acid; average ± s.e.m., n = 4
observed property: ΔTm (K)
Express the result in K but write the number alone.

[
  {
    "compound": "NC(=O)CC[C@H](N)C(=O)O",
    "ΔTm / K": 13.6
  },
  {
    "compound": "NC(=O)C[C@H](N)C(=O)O",
    "ΔTm / K": 4.36
  },
  {
    "compound": "N[C@@H](Cc1c[nH]cn1)C(=O)O",
    "ΔTm / K": 5.81
  },
  {
    "compound": "C[C@@H](O)[C@H](N)C(=O)O",
    "ΔTm / K": 6.99
  },
  {
    "compound": "N[C@@H](CCC(=O)O)C(=O)O [L-Glu, glutamate]",
    "ΔTm / K": 7.06
  }
]

Specify ΔTm for `N[C@@H](Cc1ccccc1)C(=O)O` and stop.
3.53

* * *

assay target: medaka T1r2a/T1r3LBD (Oryzias latipes, UniProt A0A173M094+A0A173M0G2)
method summary: Differential scanning fluorimetry (DSF) thermal shift ligand-binding assay
Set-up: species or system O. latipes
settings: 0.1 mM amino acid; average ± s.e.m., n = 4
Reported values of ΔTm for individual entries
Express the result in K but write the number alone.

[
  {
    "compound": "N[C@@H](CCC(=O)O)C(=O)O [L-Glu, glutamate]",
    "ΔTm (K)": 0.55
  },
  {
    "compound": "CC(C)[C@H](N)C(=O)O [L-Val]",
    "ΔTm (K)": 0.11
  },
  {
    "compound": "CSCC[C@H](N)C(=O)O [L-Met]",
    "ΔTm (K)": 0.45
  },
  {
    "compound": "NC(=O)CC[C@H](N)C(=O)O [L-Gln, L-glutamine]",
    "ΔTm (K)": 6.26
  },
  {
    "compound": "N[C@@H](Cc1c[nH]cn1)C(=O)O [L-His]",
    "ΔTm (K)": -3.75
  }
]

Consider now this further compound.
Provide ΔTm, recorded with medaka T1r2a/T1r3LBD (Oryzias latipes, UniProt A0A173M094+A0A173M0G2), of NC(=O)C[C@H](N)C(=O)O [L-Asn]
0.12
